- tested on: recombinant human NF-kappaB-inducing kinase (NIK/MAP3K14) (Homo sapiens (Human), UniProt Q99558)
- Sequence (Q99558 whole entry): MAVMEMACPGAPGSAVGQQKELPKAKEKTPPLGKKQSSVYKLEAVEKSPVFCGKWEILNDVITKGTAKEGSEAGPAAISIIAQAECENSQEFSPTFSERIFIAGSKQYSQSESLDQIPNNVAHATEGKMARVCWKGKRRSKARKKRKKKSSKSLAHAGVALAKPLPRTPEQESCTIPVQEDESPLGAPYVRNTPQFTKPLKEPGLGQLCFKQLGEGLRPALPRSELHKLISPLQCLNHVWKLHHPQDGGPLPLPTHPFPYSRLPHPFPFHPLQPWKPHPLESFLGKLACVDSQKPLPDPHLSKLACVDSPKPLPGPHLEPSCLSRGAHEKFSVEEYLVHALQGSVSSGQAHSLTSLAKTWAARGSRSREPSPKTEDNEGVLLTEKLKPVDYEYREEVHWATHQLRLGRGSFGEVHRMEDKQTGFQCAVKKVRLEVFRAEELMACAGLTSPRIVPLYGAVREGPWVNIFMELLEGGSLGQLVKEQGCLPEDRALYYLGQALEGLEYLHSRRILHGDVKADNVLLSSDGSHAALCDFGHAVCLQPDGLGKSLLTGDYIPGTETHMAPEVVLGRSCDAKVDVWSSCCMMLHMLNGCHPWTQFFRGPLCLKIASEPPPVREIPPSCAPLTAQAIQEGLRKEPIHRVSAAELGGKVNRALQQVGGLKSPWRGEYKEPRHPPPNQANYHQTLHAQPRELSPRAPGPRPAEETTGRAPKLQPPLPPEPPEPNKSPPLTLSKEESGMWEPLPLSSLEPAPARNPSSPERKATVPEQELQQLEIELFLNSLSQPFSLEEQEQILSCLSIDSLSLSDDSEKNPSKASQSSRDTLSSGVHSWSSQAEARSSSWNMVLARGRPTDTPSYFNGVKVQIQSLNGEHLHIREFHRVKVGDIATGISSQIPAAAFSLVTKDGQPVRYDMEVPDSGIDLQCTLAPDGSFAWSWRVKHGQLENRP
- method summary: Inhibition of auto-phosphorylation of recombinant human NIK/MAP3K14 activity (AlphaScreen)
- Format: biochemical
- condition summary: averaged values over all measurements on all batches
Decision: IC50 beneath 4 nM gives 1; IC50 meeting or exceeding 4 nM gives -1.

molecule: Cc1cc(Nc2nccc(-c3cc(C#N)c4c(c3)C(C)(CO)CN4)n2)n(C)n1 (centres unmarked) [Compound 3]
class: -1

molecule: Cn1ccc(Nc2nccc(-c3cc(C#N)c4c(c3)[C@@](C)(CO)CN4)n2)n1 [Compound 19]
class: 1

molecule: Cc1cc(Nc2nccc(-c3cc(C#N)c4c(c3)[C@@](C)(CO)CN4)n2)n(CC2CCOC2)n1 (single isomer, unassigned) [Compound 81]
class: -1

molecule: CC(=O)OC[C@@]1(C)CNc2c(C#N)cc(-c3ccnc(Nc4cc(C)nn4CC4CCN(C)CC4)n3)cc21 [Compound 178]
class: -1

molecule: Cc1cc(Nc2nccc(-c3cc(C#N)c4c(c3)[C@@](C)(CO)CN4)n2)n(CC(C)C)n1 [Compound 55]
class: -1

----------
Items are presented alongside their recorded IC50.
- tested on: recombinant human NF-kappaB-inducing kinase (NIK/MAP3K14) (Homo sapiens (Human), UniProt Q99558)
- method summary: Inhibition of auto-phosphorylation of recombinant human NIK/MAP3K14 activity (AlphaScreen)
- Format: biochemical
- condition summary: averaged values over all measurements on all batches

molecule: CC(C)n1nc(C(=O)N2CCCC2)cc1Nc1nccc(-c2cc(C#N)c3c(c2)[C@@](C)(CO)CN3)n1
uom: nM
IC50: 6.3
--
molecule: CC(C)CCc1c(Nc2nccc(-c3cc(C#N)c4c(c3)[C@@](C)(CO)CN4)n2)cnn1C
uom: nM
IC50: 2.9
--
molecule: Cc1csc(Nc2nccc(-c3cc(C#N)c4c(c3)[C@@](C)(CO)CN4)n2)n1
uom: nM
IC50: 1.5
--
molecule: Cn1cc(Nc2nccc(-c3cc(C#N)c4c(c3)C(C)(CO)CN4)n2)cn1 (stereo not shown)
uom: nM
IC50: 2.5
--
molecule: COCCCn1nccc1Nc1nccc(-c2cc(C#N)c3c(c2)[C@@](C)(CO)CN3)n1
uom: nM
IC50: 6.6
--
molecule: C[C@]1(CO)CNc2c(C#N)cc(-c3ccnc(Nc4cc(Cl)nn4C[C@@H]4CCOC4)n3)cc21
uom: nM
IC50: 3.8
--
molecule: COCCOc1nn(CC(F)F)cc1Nc1nccc(-c2cc(C#N)c3c(c2)[C@@](C)(CO)CN3)n1
uom: nM
IC50: 4.6
--
molecule: COCCn1ccc(Nc2nccc(-c3cc(C#N)c4c(c3)C(C)(CO)CN4)n2)n1 (stereo not shown)
uom: nM
IC50: 2.8
--
molecule: COCCn1nc(C)cc1Nc1nccc(-c2cc(C#N)c3c(c2)[C@@](C)(CO)CN3)n1
uom: nM
IC50: 4.2
--
molecule: Cn1nc(Nc2nccc(-c3cc(C#N)c4c(c3)[C@@](C)(CO)CN4)n2)cc1Cl
uom: nM
IC50: 2.6
--
molecule: CNC(=O)c1cc(Nc2nccc(-c3cc(C#N)c4c(c3)[C@@](C)(CO)CN4)n2)n(C)n1
uom: nM
IC50: 3.1
--
molecule: CC(C)n1nc(CO)cc1Nc1nccc(-c2cc(C#N)c3c(c2)[C@@](C)(CO)CN3)n1
uom: nM
IC50: 3.6
--
molecule: Cn1ccc(Nc2ncnc(-c3cc(C#N)c4c(c3)C(C)(CO)CN4)n2)n1 (stereo not shown)
uom: nM
IC50: 7.8
--
molecule: Cc1nscc1Nc1nccc(-c2cc(C#N)c3c(c2)[C@@](C)(CO)CN3)n1
uom: nM
IC50: 1.3
--
molecule: Cn1ccc(Nc2nccc(-c3cc(C#N)c4c(c3)[C@](C)(CN)CN4)n2)n1
uom: nM
IC50: 224
--
molecule: CN1CCN(Cc2c(Nc3nccc(-c4cc(C#N)c5c(c4)[C@@](C)(CO)CN5)n3)cnn2CCC2CC2)CC1
uom: nM
IC50: 13
--
molecule: C[C@]1(CO)CNc2c(C#N)cc(-c3ccnc(Nc4ccn(CC5CC5)n4)n3)cc21
uom: nM
IC50: 2.2
--
molecule: Cn1nc(Nc2nccc(-c3cc(C#N)c4c(c3)[C@@](C)(CO)CN4)n2)cc1CN1CCOCC1
uom: nM
IC50: 32
--
molecule: Cc1cc(Nc2nccc(-c3cc(C#N)c4c(c3)[C@@](C)(CO)CN4)n2)n(CC(=O)N(C)C)n1
uom: nM
IC50: 2.9
--
molecule: C[C@]1(CO)CNc2c(C#N)cc(-c3ccnc(Nc4cn(CC(F)F)nc4C(=O)N4CCCC4)n3)cc21
uom: nM
IC50: 17
--
molecule: CC(C)CCc1c(Nc2nccc(-c3cc(C#N)c4c(c3)[C@@](C)(CO)CN4)n2)cnn1CC1CCN(CC(F)F)CC1
uom: nM
IC50: 3.9
--
molecule: C[C@]1(CO)CNc2c(C#N)cc(-c3ccnc(Nc4cc(C(=O)N5CCCC5)n(C5CCCC5)n4)n3)cc21
uom: nM
IC50: 5.6
--
molecule: CN(C)C(=O)c1cc(Nc2nccc(-c3cc(C#N)c4c(c3)[C@@](C)(CO)CN4)n2)nn1C
uom: nM
IC50: 7.6
--
molecule: Cn1nc(C(=O)NC2CCOCC2)cc1Nc1nccc(-c2cc(C#N)c3c(c2)C(C)(CO)CN3)n1 (stereo not shown)
uom: nM
IC50: 8.1
